Tested on: DENV-2
protocol.description: microbe, parasite or virus in culture
run.parameters: Dengue virus, DENV2, A549, 48 h, read-out: EC50 against DENV-2
experimental.endpoint: pEC50
// returns pEC50 (minus log10 of molar concentration), number only

Previously resolved entries follow.
{"molecule": "COc1cc2c(O)c3c(c(-c4ccc5c(c4)OCO5)c2cc1OC)C(=O)OC3 [DP, diphyllin]", "reported.value": 6.40}
{"molecule": "COc1cc2c(OCC#N)c3c(c(-c4ccc5c(c4)OCO5)c2cc1OC)C(=O)OC3 [Compound C156-P1]", "reported.value": 8.87}

Now consider a different molecule.
## Task Looking for the measured pEC50 of COc1cc2c(O[C@@H]3O[C@H](C)[C@@H](O)[C@H](O)[C@H]3O)c3c(c(-c4ccc5c(c4)OCO5)c2cc1OC)C(=O)OC3 [PTA, patentiflorin A, reference compound] , can you help?
## Result 7.42
